Assay: reduction of polyQ htt aggregates in cells – imaging, exon1htt(103Q)mCFP cells, high-content imaging, primary screen (AID 483);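 also: compound exposure lasted 3 days before fixation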;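 as to nuclei count: percent of the per-plate median nuclei count of sample wells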
Conditions: exon1htt(103Q)mCFP cell line, aggregate imaging, at 2 µM; measured here: cell count, toxicity
Collected nuclei count values appear next to each entry.
test.readout: nuclei count (%)

• COCCn1c(=O)[nH]c2cc(C(=O)NCc3cccnc3)ccc2c1=O = 93.8
• COc1cc(-c2c(C#N)c(N)nc3c2CCCC3)cc(OC)c1OC = 101
• Clc1ccc(SCCn2ccnc2)cc1 = 104
• COc1cccc(/C(O)=C2/C(=O)C(=O)N(CCN3CCOCC3)C2c2cccnc2)c1 (stereo unspecified) = 107
• Cc1nnc(SCC(=O)NC(C)(C)C)n1CCc1ccccc1 = 109
• CC(C)C12CN3CC(C(C)C)(CN(C1)C3c1ccc3c(c1)OCO3)C2=O (stereo unspecified) = 98.4

###

Experiment: blockers of RIG-like receptor reporter activation – cell-based, Sendai virus stimulus, luciferase, 10K MLSCN set, TLR/RLR signaling modifier project, primary screen (AID 602276);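 also: firefly luciferase from ISG56 promoter only with Renilla not read in this screen; 0% = Sendai virus plus DMSO and 100% = medium plus DMSO without virus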
Conditions: HEK293 RL24 IRF3 luciferase reporter, at 10 µM, stronger effect = higher value
test.readout: inhibition (%)

- CC(=O)Oc1ccc(C(c2ccc(OC(C)=O)cc2)c2ccccn2)cc1: 12.5
- O=C(NCCN1CCOCC1)c1ccc2c(c1)N(Cc1ccccc1)C(=O)CS2: -1.65
- O=C(CN1C(=O)C2CC=C(Cl)CC2C1=O)Nc1ccc(C(=O)O)cc1 (stereo not given): 19.2
- O=C(c1cccn2c(=O)c3cc(Cl)ccc3nc12)N1CCOCC1: 7.46
- COc1ccc(/C(O)=C2/C(=O)C(=O)N(Cc3cccnc3)C2c2ccncc2)cc1F (stereo not given): 8.93

###

Target: Voltage-gated potassium channel subunit beta-2 (Rattus norvegicus) (UniProt P62483)
Sequence (P62483 whole entry, looked up): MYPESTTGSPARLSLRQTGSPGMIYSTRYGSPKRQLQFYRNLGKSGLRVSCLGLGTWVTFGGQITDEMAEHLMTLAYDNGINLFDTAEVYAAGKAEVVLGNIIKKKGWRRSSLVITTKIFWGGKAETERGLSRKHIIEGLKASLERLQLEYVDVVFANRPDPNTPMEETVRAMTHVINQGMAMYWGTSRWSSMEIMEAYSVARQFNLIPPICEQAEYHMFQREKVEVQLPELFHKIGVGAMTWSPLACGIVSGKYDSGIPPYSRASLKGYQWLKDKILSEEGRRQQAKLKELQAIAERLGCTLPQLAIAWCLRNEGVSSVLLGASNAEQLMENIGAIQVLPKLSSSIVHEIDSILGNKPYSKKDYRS
Test: inhibitors of rat Kvbeta2 reductase activity – biochemical, NADPH fluorescence, primary screen (AID 622);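 also: slope of raw intensity against log time taken from 70 to 1610 s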
Conditions: recombinant KvBeta, 4-cyanobenzaldehyde reduction, at 10 µM, stronger effect = higher value
Rule: 1 for fluorescence slope not less than -0.5, -1 for anything less.

• Cc1nc2nc(SCC(=O)NCc3ccco3)nn2c(C)c1Cc1ccccc1 = 1
• c1ccc2c3nnc4n(c-3nc2c1)CCCS4 = 1
• NC(=O)c1c(-c2ccccc2)oc2ccc(O)cc12 = -1
• O=C(Cn1c(=O)[nH]n(-c2ccccc2)c1=O)N1CCCc2ccccc21 = 1
• CCOP(=O)(c1ccc(N(C)C)cc1)C(O)c1cc(OC)c(OC)c(OC)c1 (stereo unspecified) = 1
• COC(=O)C1=C(C)NC(=O)C1(NC(=O)c1cccnc1)C(F)(F)F (stereo unspecified) = -1
• Cc1nc(SCC#N)c2c(C)c(C)sc2n1 = -1
• CCOc1ccc(CN2CCN(c3cc(C)nc4c5c(C)cc(C)nc5nn34)CC2)cc1 = 1
• CC(=O)Nc1ccn(-c2ccccc2)n1 = -1
• Cn1c(C(=O)NCC2CCCO2)cc2c(=O)[nH]c3ccccc3c21 (stereo unspecified) = 1

###

Assay: reduction of polyQ htt aggregates in cells – imaging, exon1htt(103Q)mCFP cells, high-content imaging, primary screen (AID 483);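 also: compound exposure lasted 3 days before fixation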
Details: exon1htt(103Q)mCFP cell line, aggregate imaging, at 2 µM; stronger effect = higher value
Collected inhibition of aggregation values appear next to each entry.
test.readout: inhibition of aggregation (%)

* O=C1CCCc2c1cc(C(=O)NCc1ccco1)c(=O)n2-c1ccc(Cl)cc1 | 5.3
* CCOC(=O)N1CCN(C(=O)C(NS(=O)(=O)c2cccc3nsnc23)c2ccccc2)CC1 (stereo unspecified) | 13.3
* CCC(=O)N1CCCc2cc(S(=O)(=O)N3CCCc4ccccc43)ccc21 | -1.8
* COC(=O)c1cc(NC(=O)C2CC=CCC2C(=O)O)cc(C(=O)OC)c1 (stereo unspecified) | -7.4
* CCCOc1ccc(C2c3c(oc4ccccc4c3=O)C(=O)N2CCCN2CCOCC2)cc1 (stereo unspecified) | 26.2
* COC(=O)c1ccc(CSc2ncnc3c2nnn3-c2ccc(OC)cc2)o1 | -13.1
* c1ccc(CNC2=NCCC2)nc1 | 14.2
* COC(=O)CCN1CCC(C(N)=O)CC1 | -4.2
* CN1Cc2c(N)cccc2C(c2ccccc2)C1 (stereo unspecified) | 5.1
* Cc1nnc(NC(=O)Nc2cccc(Cl)c2)s1 | -4.3
* COC(=O)Nc1nc2ccc(C(=O)c3ccccc3)cc2[nH]1 | -1.2

###

Assay: inhibitors of TNFa-induced NFkB p65 translocation, primary screen, imaging, HUVEC, MLSMR starter and 10KST1 sets (AID 438);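 also: compound added about 3h40 before a 20 min TNFalpha stimulation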
Details: HUVEC TNFa-induced p65 nuclear translocation; measured here: nuclei count (cytotoxicity indicator), at 2.08 µM
Class (by cell count) -- zone 1 (below 500), zone 2 (500 to below 600), zone 3 (600 or more)

* CCOC(=O)N1CCN(C(=O)CN(C)S(=O)(=O)c2ccc(OC)c(OC)c2)CC1 | zone 1
* Cc1ccccc1Cn1nc(C)c(NC(=O)c2noc3c2CCCC3)c1C | zone 1
* Clc1ccccc1OCc1nn2c(-c3ccncc3)nnc2s1 | zone 1
* O=C(Nc1ccc(Cl)c(Cl)c1)Nc1cc(C(=O)N2CCOCC2)ccc1N1CCCCC1 | zone 2
* CN(c1ccccc1)S(=O)(=O)c1cc(C(=O)N2CCN(c3ccccn3)CC2)ccc1Cl | zone 3
* O=C(NCCN1CCOCC1)c1csc2c1CCCC2 | zone 3
* Cc1ccc(S(=O)(=O)N2CCN(C(=O)CN3C(=O)NC4(CCOc5ccccc54)C3=O)CC2)cc1 (stereo not given) | zone 3
* Cc1cc(NC(=O)NC(=O)c2cccc(OC(F)(F)C(F)F)c2)n[nH]1 | zone 2
* CCOC(=O)c1cccc(NC(=O)Cn2cnc3c2c(=O)n(C)c(=O)n3C)c1 | zone 1

###

Target: Voltage-gated potassium channel subunit beta-2 (Rattus norvegicus) (UniProt P62483)
Test: inhibitors of rat Kvbeta2 reductase activity – biochemical, NADPH fluorescence, primary screen (AID 622);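 also: slope of raw intensity against log time taken from 70 to 1610 s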
Details: recombinant KvBeta, 4-cyanobenzaldehyde reduction, at 10 µM, stronger effect = higher value
Collected fluorescence slope values appear next to each entry.
test.readout: fluorescence slope

* O=C(OCc1cccs1)c1ccccc1NS(=O)(=O)c1ccc2c(c1)OCCO2 | -0.626
* O=C1CN(c2ccccc2F)C(=O)CN1c1ccccc1F | -0.476
* CCC1CCCCN1S(=O)(=O)c1ccc(C(=O)Nc2nnc(-c3cccs3)o2)cc1 (stereo unspecified) | -0.486
* Cn1c(=O)c(NC(=O)c2ccccc2)c2n(c1=S)CCCCC2 | -0.57
* COc1ccccc1-n1cnnc1SCC(=O)c1ccc[nH]1 | -0.532
* CC(=O)N1CCc2cc(S(=O)(=O)NC(C(=O)NCc3ccccc3)C(C)C)ccc21 (stereo unspecified) | -0.587
* Cc1nc2ccccc2cc1C(=O)NCc1ccco1 | -0.53
* CCOC(=O)N1CCC(NC(=O)c2ccc(OC)c(CN3CC(=O)N4CCCC4C3=O)c2)CC1 (stereo unspecified) | -0.447
* O=C1CC2CS(=O)(=O)CC2N1c1ccc(Oc2ccccc2)cc1 (stereo unspecified) | -0.395
* CS(=O)(=O)c1ncc(Cl)c(C(=O)Nc2ccc(N3CCOCC3)cc2)n1 | -0.46
* O=S(=O)(CCOc1ccccc1)c1nc2ccccc2[nH]1 | -0.566

###

Collected inhibition values appear next to each entry.
Assay: blockers of RIG-like receptor reporter activation – cell-based, Sendai virus stimulus, luciferase, 10K MLSCN set, TLR/RLR signaling modifier project, primary screen (AID 602276);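 also: firefly luciferase from ISG56 promoter only with Renilla not read in this screen; 0% = Sendai virus plus DMSO and 100% = medium plus DMSO without virus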
Details: HEK293 RL24 IRF3 luciferase reporter, at 10 µM, stronger effect = higher value
test.readout: inhibition (%)

- CN1CCN(C2=Nc3cc(Cl)ccc3Nc3ccccc32)CC1: 2.76
- C=CCOc1nc(N2CCCC2)nc(N2CCCC2)n1: 10.7
- CC1(c2ccc(OC(F)F)cc2)NC(=O)N(CC(=O)Nc2ccc3c(c2)OCO3)C1=O (stereo unspecified): -3.26
- Cc1cc(C(C)(C)C)c(O)c(C)c1CC1=NCCN1: 16.9
- COC(=O)c1ccc(CN(c2ccccc2OC)S(=O)(=O)c2cccs2)o1: 3.68
- O=C(O)Cn1cc2c(n1)CCCC2: 9.43

###

Assay: endothelial E-selectin expression blockers – imaging, HUVEC, immunofluorescence, MLSMR starter and 10KST1 sets, primary screen (AID 487);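 also: signal is fraction of cell area covered by stained E-selectin grains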
Conditions: HUVEC TNFalpha-induced E-selectin immunofluorescence imaging, at 2 µM; stronger effect = higher value
Collected inhibition values appear next to each entry.
test.readout: inhibition (%)

* COc1ccccc1N1CCN(CCCNC(=O)Nc2ccccc2)CC1 | -129
* COc1ccc(CSc2nnc(C)n2N)cc1Br | -82.3
* CCn1nc(C(=O)OCC(=O)c2cc(C)n(Cc3cccs3)c2C)c2ccccc2c1=O | -97.8
* O=C(CSc1nnc(Cn2nnc(-c3ccccc3)n2)n1-c1ccccc1)Nc1ccc(F)cc1 | -114
* CC(=O)N1C(=O)c2cccc3cccc(c23)C(=O)N1C(C)=O | -62.5
* CN1CCN(C(=O)CN(Cc2ccc(Cl)cc2)S(C)(=O)=O)CC1 | -25
* Cc1ccccc1-c1noc(N)c1C#N | 4.6
* CC1CCCC(NC(=O)CN2CCN(Cc3ccc(Cl)cc3)C2=O)C1C (stereo unspecified) | -27.1
* CCCCc1c(O)nc(SCC(=O)c2ccccc2)[nH]c1=O | 21.3
* Cc1ccc2nc(CSc3nnc(-c4ccco4)n3-c3ccccc3)cc(=O)n2c1 | -175
* COCC(=O)N(Cc1nc2ccccc2c(=O)[nH]1)Cc1cccs1 | -64.2
